Consider the following binders and their measured Kd readings.
- measurement.target: T1, EsCas13d, nuclease-dead (Eubacterium siraeum, UniProt B0MS50, R295A;H300A;R849A;H854A)
- T1 sequence: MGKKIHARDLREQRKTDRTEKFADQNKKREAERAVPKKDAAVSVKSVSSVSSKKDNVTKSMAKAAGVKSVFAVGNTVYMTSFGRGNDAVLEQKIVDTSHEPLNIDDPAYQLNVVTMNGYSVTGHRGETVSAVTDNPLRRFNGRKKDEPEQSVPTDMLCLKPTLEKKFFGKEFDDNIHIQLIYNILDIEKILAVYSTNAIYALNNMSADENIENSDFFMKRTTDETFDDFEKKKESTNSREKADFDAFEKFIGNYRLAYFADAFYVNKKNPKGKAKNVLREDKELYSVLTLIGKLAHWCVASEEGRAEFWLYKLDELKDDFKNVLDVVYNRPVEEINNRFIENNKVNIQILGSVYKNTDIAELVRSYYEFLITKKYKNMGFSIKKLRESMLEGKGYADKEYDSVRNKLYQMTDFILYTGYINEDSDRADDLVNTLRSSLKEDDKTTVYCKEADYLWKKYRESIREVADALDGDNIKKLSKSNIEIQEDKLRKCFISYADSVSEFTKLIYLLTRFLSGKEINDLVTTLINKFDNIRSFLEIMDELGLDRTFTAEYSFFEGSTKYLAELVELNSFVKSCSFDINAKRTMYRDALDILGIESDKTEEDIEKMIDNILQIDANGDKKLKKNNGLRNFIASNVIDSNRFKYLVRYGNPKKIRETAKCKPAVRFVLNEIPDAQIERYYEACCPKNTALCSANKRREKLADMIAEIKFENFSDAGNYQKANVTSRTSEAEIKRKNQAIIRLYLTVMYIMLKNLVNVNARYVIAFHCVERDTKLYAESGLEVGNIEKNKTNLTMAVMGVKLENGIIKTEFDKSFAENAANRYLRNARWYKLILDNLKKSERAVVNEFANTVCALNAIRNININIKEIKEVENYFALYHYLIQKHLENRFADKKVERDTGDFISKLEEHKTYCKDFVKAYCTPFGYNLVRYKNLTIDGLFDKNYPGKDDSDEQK
- assay.notes: crRNA (strand 1, pre-loaded); Mg2+; 40 mM Tris-HCl pH 7.5, 150 mM NaCl, 6 mM MgCl2, 1 mM DTT, 0.1% Tween-20, 0.2 mg/ml BSA; 25 C; 10 min per concentration, then washed
- setup.conditions: tags: His6-TwinStrep-SUMO cleaved; N-terminal SNAP kept (SNAP-Surface 488); label: 3' end held by stalled T7 RNA polymerase

| binder | measurement.name | measured |
| --- | --- | --- |
| target 1 MT 5'PFS UGC 3'PFS UUC (mixed) RNA 1: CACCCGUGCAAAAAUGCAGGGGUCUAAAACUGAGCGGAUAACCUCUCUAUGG RNA 2: GGGAAUGGAUCCACAUCUACGAAUUCUGCCCAUAGAGAGGUUAUCCGCUCAUUCAGAUCGGAAGAGCACACGU | Kd | 14 nM |

Proceeding to the next binder to report its Kd.
Requested read-out: Kd. Entry: target 1 A1U,U8C (mixed) RNA 1: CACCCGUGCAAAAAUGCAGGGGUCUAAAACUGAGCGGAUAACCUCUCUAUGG RNA 2: GGGAAUGGAUCCACAUCUACGAAUUCGUACCAUAGAGAGGUUACCCGCUCUCCGAGAUCGGAAGAGCACACGU 11.2 nM
